# condition info: in n-hexanol, 300.65 K
measurement type: solubility (mole fraction)

On1nnc2ccccc21 | 0.0166

* * *

# condition info: in ethyl acetate, 295.65 K
measurement type: solubility (mole fraction)

On1nnc2ccccc21 | 0.0101

* * *

# condition info: in methanol, 310.65 K
measurement type: solubility (mole fraction)

On1nnc2ccccc21 | 0.0562

* * *

# condition info: in isooctanol, 310.65 K
measurement type: solubility (mole fraction)

On1nnc2ccccc21 | 0.0175

* * *

# condition info: in DMF, 288.15 K
measurement type: solubility (mole fraction)

On1nnc2ccccc21 | 0.0646

* * *

# condition info: in n-hexanol, 290.65 K
measurement type: solubility (mole fraction)

On1nnc2ccccc21 | 0.0139

* * *

# condition info: in n-heptanol, 285.65 K
measurement type: solubility (mole fraction)

On1nnc2ccccc21 | 0.0134

* * *

# condition info: in isopentanol, 285.65 K
measurement type: solubility (mole fraction)

On1nnc2ccccc21 | 0.0123

* * *

# condition info: in 2-butanone, 278.15 K
measurement type: solubility (mole fraction)

On1nnc2ccccc21 | 0.0157

* * *

# condition info: in toluene, 290.65 K
measurement type: solubility (mole fraction)

On1nnc2ccccc21 | 2.17e-05

* * *

# condition info: in isooctanol, 303.15 K
measurement type: solubility (mole fraction)

On1nnc2ccccc21 | 0.0154

* * *

# condition info: in acetone, 280.65 K
measurement type: solubility (mole fraction)

On1nnc2ccccc21 | 0.0149

* * *

# condition info: in ethyl acetate, 305.65 K
measurement type: solubility (mole fraction)

On1nnc2ccccc21 | 0.0169

* * *

# condition info: in isooctanol, 300.65 K
measurement type: solubility (mole fraction)

On1nnc2ccccc21 | 0.0149

* * *

# condition info: in n-hexanol, 298.15 K
measurement type: solubility (mole fraction)

On1nnc2ccccc21 | 0.0159

* * *

# condition info: in DMSO, 300.65 K
measurement type: solubility (mole fraction)

On1nnc2ccccc21 | 0.0921

* * *

# condition info: in 2-butanone, 283.15 K
measurement type: solubility (mole fraction)

On1nnc2ccccc21 | 0.0181

* * *

# condition info: in n-heptanol, 300.65 K
measurement type: solubility (mole fraction)

On1nnc2ccccc21 | 0.0173

* * *

# condition info: in isopropanol, 293.15 K
measurement type: solubility (mole fraction)

On1nnc2ccccc21 | 0.0367

* * *

# condition info: in isopropanol, 280.65 K
measurement type: solubility (mole fraction)

On1nnc2ccccc21 | 0.0261

* * *

# condition info: in n-hexanol, 310.65 K
measurement type: solubility (mole fraction)

On1nnc2ccccc21 | 0.0198

* * *

# condition info: in ethyl acetate, 288.15 K
measurement type: solubility (mole fraction)

On1nnc2ccccc21 | 0.00745

* * *

# condition info: in 1,4-dioxane, 298.15 K
measurement type: solubility (mole fraction)

On1nnc2ccccc21 | 0.0202

* * *

# condition info: in DMSO, 283.15 K
measurement type: solubility (mole fraction)

On1nnc2ccccc21 | 0.0421

* * *

# condition info: in DMSO, 305.65 K
measurement type: solubility (mole fraction)

On1nnc2ccccc21 | 0.114

* * *

# condition info: in DMSO, 308.15 K
measurement type: solubility (mole fraction)

On1nnc2ccccc21 | 0.128

* * *

# condition info: in isopentanol, 295.65 K
measurement type: solubility (mole fraction)

On1nnc2ccccc21 | 0.0143

* * *

# condition info: in ethanol, 295.65 K
measurement type: solubility (mole fraction)

On1nnc2ccccc21 | 0.0493

Cited source for all entries: BigSolDB 2.1
